MEASURED_TARGET: TRBV9+TRAV38 antigen
ASSAY_TEXT: BLI (OctetRed 96), antigen on AR2G sensors, antibody 126-2 nM, 1:1 model; run 1
Item-by-item account of koff

BINDER	koff
anti-TRBV9-3 monoclonal antibody (antibody, human IgG1, kappa, V domains shown) VH: QIQLVQSGPELREPGESVKLSCKASGYTFTDYLVHWVKQAPGKGLKWMGWINTYTGTPTYADDFEGRFVFSLEASASTANLQISNLKNEDTATYFCARSWRRGIRGLGFDYWGQGVFVTVSS VL: DVQMTQSPYNLAASPGESVSINCKASKSINKYLAWYQQKPGKPNKLLIYDGSTLQSGIPSRFSGSGSGTDFTLTIRGLEPEDFGLYYCQQHNEYPPTFGAGTKLELKR	9.61e-05 s⁻¹
anti-TRBV9-4 monoclonal antibody (antibody, human IgG1, kappa, V domains shown) VH: QIQLVQSGPELREPGESVKLSCKASGYTFTDYLVHWVKQAPGKGLKWMGWINTYTGTPTYADDFEGRFVFSLEASASTANLQISNLKNEDTATYFCARSWRRGIRGIGFDYWGQGVFVTVSS VL: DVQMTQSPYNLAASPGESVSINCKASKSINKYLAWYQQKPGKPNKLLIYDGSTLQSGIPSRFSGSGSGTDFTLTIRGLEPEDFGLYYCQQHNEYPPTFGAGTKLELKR	< 1e-07 s⁻¹
anti-TRBV9-2 monoclonal antibody (antibody, human IgG1, kappa, V domains shown) VH: QIQLVQSGPELREPGESVKLSCKASGYTFTDYLVHWVKQAPGKGLKWMGWINTYTGTPTYADDFEGRFVFSLEASASTANLQISNLKNEDTATYFCARSWRRGLRGIGFDYWGQGVFVTVSS VL: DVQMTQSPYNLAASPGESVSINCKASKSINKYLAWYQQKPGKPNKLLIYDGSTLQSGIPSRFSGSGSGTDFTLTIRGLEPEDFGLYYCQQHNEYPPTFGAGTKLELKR	< 1e-07 s⁻¹
anti-TRBV9-1 monoclonal antibody (antibody, human IgG1, kappa, V domains shown) VH: QIQLVQSGPELREPGESVKLSCKASGYTFTDYLVHWVKQAPGKGLKWMGWINTYTGTPTYADDFEGRFVFSLEASASTANLQISNLKNEDTATYFCARSWRRGLRGLGFDYWGQGVFVTVSS VL: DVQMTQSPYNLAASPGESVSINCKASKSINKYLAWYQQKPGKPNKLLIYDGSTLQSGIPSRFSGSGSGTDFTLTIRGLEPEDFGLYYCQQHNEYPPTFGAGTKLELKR	0.000183 s⁻¹
